Target: LUSH (Drosophila melanogaster)
Sequence (O02372 30-153): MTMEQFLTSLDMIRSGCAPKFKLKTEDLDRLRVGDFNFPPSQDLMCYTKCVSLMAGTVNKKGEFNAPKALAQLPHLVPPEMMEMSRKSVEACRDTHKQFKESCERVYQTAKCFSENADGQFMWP
measurementKind: Kd

> print(dat)
                    molecule                   subjectoftest  measurementkind  resultvalue
1  c1ccc(Nc2cccc3ccccc23)cc1  LUSH (Drosophila melanogaster)               Kd      2390 nM
